# credit: patent US4873236A

# ASSAY_TARGET: muscarinic receptors, heart (Rattus norvegicus)
# Construct: After removal of the heart and submandibular gland
# Sequence (P10980 1-466): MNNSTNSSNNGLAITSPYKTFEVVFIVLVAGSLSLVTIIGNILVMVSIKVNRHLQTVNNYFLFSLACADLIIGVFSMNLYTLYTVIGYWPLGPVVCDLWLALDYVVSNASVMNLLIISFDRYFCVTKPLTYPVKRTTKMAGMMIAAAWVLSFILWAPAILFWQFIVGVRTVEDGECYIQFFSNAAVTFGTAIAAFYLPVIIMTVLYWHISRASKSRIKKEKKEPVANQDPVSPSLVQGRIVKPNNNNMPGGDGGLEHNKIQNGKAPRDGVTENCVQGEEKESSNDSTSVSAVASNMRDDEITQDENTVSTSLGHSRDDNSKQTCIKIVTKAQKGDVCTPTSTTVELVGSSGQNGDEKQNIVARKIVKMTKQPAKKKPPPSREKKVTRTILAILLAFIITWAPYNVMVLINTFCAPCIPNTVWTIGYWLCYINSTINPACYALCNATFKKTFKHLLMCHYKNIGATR
# ASSAY_PROCEDURE: Receptor bonding test in vitro, heart (displacement of 3H-N-methylscopolamine)
# PARTICULARS: 0.3 nmolar 3H-NMS, 30° C., 45 min, heart

{"COMPOUND": "CCN(CC)CC1CCCCN1CCNC(=O)N1c2cc(Cl)ccc2C(=O)Nc2cccnc21 (stereo not shown)", "ASSAY_TARGET": "muscarinic receptors, heart (Rattus norvegicus)", "IC50 [µM]": 0.03}
{"COMPOUND": "CCN(CC)CC1CCCCN1CC(=O)N1c2ccccc2C(=O)Nc2cccnc21 (stereo not shown) [Substance X, reference compound]", "ASSAY_TARGET": "muscarinic receptors, heart (Rattus norvegicus)", "IC50 [µM]": 0.15}
{"COMPOUND": "CCCN(CCC)CC1CCCCN1CCNC(=O)N1c2ccccc2C(=O)Nc2cccnc21 (stereo not shown)", "ASSAY_TARGET": "muscarinic receptors, heart (Rattus norvegicus)", "IC50 [µM]": 0.02}
{"COMPOUND": "CCN(CC)CC1CCCCN1CCNC(=O)N1c2ccccc2NC(=O)c2csc(C)c21 (stereo not shown)", "ASSAY_TARGET": "muscarinic receptors, heart (Rattus norvegicus)", "IC50 [µM]": 0.003}

---

# ASSAY_TARGET: M2 (vagal bradycardia) (Rattus norvegicus)
# Construct: The bradycardia produced by vagus stimulation; from tissue; host or cells: whole animal (male THOM rats), heart
# ASSAY_PROCEDURE: M1/M2 selectivity in the rat: inhibition of vagally stimulated bradycardia (M2)
# Assay type: in vivo, male THOM rats
# PARTICULARS: iv, 5 min, i.v., 50% reduction in vagal bradycardia, read-out: M2 activity (rat) ED50
# reported ED50; entries follow
ENDPOINT: ED50 (mg/kg)

{"COMPOUND": "CCN(CC)CC1CCCCN1CC(=O)N1c2ccccc2C(=O)Nc2cccnc21 (stereo not shown) [Substance X, reference compound]", "ASSAY_TARGET": "M2 (vagal bradycardia) (Rattus norvegicus)", "ENDPOINT": "ED50", "RECORDED_RESULT": 0.16}
{"COMPOUND": "CCN(CC)CC1CCCCN1CCNC(=O)N1c2cc(Cl)ccc2C(=O)Nc2cccnc21 (stereo not shown)", "ASSAY_TARGET": "M2 (vagal bradycardia) (Rattus norvegicus)", "ENDPOINT": "ED50", "RECORDED_RESULT": 0.058}
{"COMPOUND": "CCCN(CCC)CC1CCCCN1CCNC(=O)N1c2ccccc2C(=O)Nc2cccnc21 (stereo not shown)", "ASSAY_TARGET": "M2 (vagal bradycardia) (Rattus norvegicus)", "ENDPOINT": "ED50", "RECORDED_RESULT": 0.019}
{"COMPOUND": "CCN(CC)CC1CCCCN1CCNC(=O)N1c2ccccc2NC(=O)c2csc(C)c21 (stereo not shown)", "ASSAY_TARGET": "M2 (vagal bradycardia) (Rattus norvegicus)", "ENDPOINT": "ED50", "RECORDED_RESULT": 0.008}
